molecular target: Muscarinic acetylcholine receptor; experiment: The compound was tested in vitro for its binding affinity to muscarinic receptor on rat brain membrane by competitive binding assay using [3H]-QNB
This listing pairs molecules with measured Ki.
Just the number in µM, nothing appended.

structure_smiles=CC(C)OC(=O)c1cc2c(c[n+]1C)[nH]c1ccccc12.[I-] system_tested="Muscarinic acetylcholine receptor" reported_measurement=0.5
structure_smiles=CCOC(=O)c1cc2c(c[n+]1C)[nH]c1ccccc12.[I-] system_tested="Muscarinic acetylcholine receptor" reported_measurement=0.7
structure_smiles=CNC(=O)c1cc2c(c[n+]1C)[nH]c1ccccc12.[I-] system_tested="Muscarinic acetylcholine receptor" reported_measurement=27
structure_smiles=CCCOC(=O)c1cc2c(c[n+]1C)[nH]c1ccccc12.[I-] system_tested="Muscarinic acetylcholine receptor" reported_measurement=1
structure_smiles=COC(=O)c1cc2c(c[n+]1C)[nH]c1ccccc12 system_tested="Muscarinic acetylcholine receptor" reported_measurement=3.1

stdin: Given `CCCCOC(=O)c1cc2c(c[n+]1C)[nH]c1ccccc12.[I-]` , state its recorded Ki.
stdout: 0.5
